# method-notes: solvent given as SMILES
# assay-conditions: in Cc1ccccc1
Hi there, I'd appreciate the recorded emission maximum for every entry that follows.
Just the number please, in nm, no unit attached.

State its emission maximum: c1ccc(-c2cc(-c3ccc(N4c5ccccc5C(c5ccccc5)(c5ccccc5)c5ccccc54)cn3)nc(-c3ccccc3)n2)cc1 480

State its emission maximum: CCCCCCCCOc1ccc(C#Cc2ccc(C#Cc3ccc(OCCCCCCCC)c(OCCCCCCCC)c3)c3nc4c5ccccc5c5ccccc5c4nc23)cc1OCCCCCCCC 541

State its emission maximum: c1ccc(-c2nc(-c3ccccc3)nc(-c3ccc(-n4c5ccc(-c6ccc7oc8ccccc8c7c6)cc5c5cc(-c6ccc7oc8ccccc8c7c6)ccc54)cc3)n2)cc1 437

State its emission maximum: Cc1cc(-c2ccc(-c3ccccc3)cc2)nc(-c2ccc(-n3c4ccccc4c4ccccc43)cc2)n1 386

State its emission maximum: Fc1c(-n2c3ccccc3c3ccccc32)c(F)c(-n2c3ccccc3c3ccccc32)c(-c2nnc(-c3ccccc3)o2)c1-n1c2ccccc2c2ccccc21 490

State its emission maximum: CC1(C)c2ccccc2N(c2ccc3c(c2)Oc2ccccc2P3(=O)c2ccccc2)c2ccccc21 (configuration not stated) 433

State its emission maximum: CC(C)(C)c1ccc2c(c1)c1cc(C(C)(C)C)ccc1n2-c1ccc(-c2nc(-c3ccccc3)nc(-c3ccccc3)n2)c2c1c1ccccc1n2-c1ccccc1 417

State its emission maximum: COc1ccc(C2=C3C(C)=CC(C=Cc4ccc(C(=O)OC5C[C@H]6CCC5(C)C6(C)C)cc4)=[N+]3[B-](F)(F)n3c(C)cc(C)c32)cc1 (some centres not stated) 627

State its emission maximum: COCCC1=Cc2nc1ccc1[nH]c(cc1CCOC)c1nc(ccc3[nH]c2cc3CCOC)C(CCOC)=C1 642

State its emission maximum: c1ccc([B-]2(c3ccccc3)Oc3ccc4ccccc4c3-c3c4ccccc4cc[n+]32)cc1 522

State its emission maximum: CCn1c2ccccc2c2cc(C#Cc3cc(C#Cc4ccc5c(c4)c4ccccc4n5CC)nc(OC)n3)ccc21 411

State its emission maximum: CC1=[N+]2C(=C(c3ccc(N4CCCCC4)cc3)c3ccc(C)n3[B-]2(F)F)C=C1 593

State its emission maximum: c1ccc(-c2nc(-c3ccc(-n4c5ccc(-n6c7ccccc7c7ccccc76)cc5c5ccc6c(c7ccccc7n6-c6ccccc6)c54)cc3)c3sc4ccccc4c3n2)cc1 460.56

State its emission maximum: C=CC1CN2CCC1CC2[C@@H](OCc1ccccc1)c1ccnc2ccc(O)cc12 (some centres not stated) 355

State its emission maximum: COc1ccc(C2=C(c3ccc(F)cc3)C(c3ccccc3)=[N+]3C2=Nc2c(-c4ccc(OC)cc4)c(-c4ccc(F)cc4)c(-c4ccccc4)n2[B-]3(F)F)cc1 692

State its emission maximum: c1ccc(N(c2ccccc2)c2ccc3ccc4c(N(c5ccccc5)c5ccccc5)ccc5ccc2c3c54)cc1 458

State its emission maximum: F[B-]1(F)Oc2c(ccc3c4c(ccc23)C=[N+](c2ccccc2)[B-](F)(F)O4)C=[N+]1c1ccccc1 538
